Data provenance: patent US8957087B2

- Test system: lung cancer cell A549
- assay method text: Effects on the adhesive ability of lung cancer cell A549
- Type: cell-based, human
- experimental setup: Final concentration 1 x 1.0*10^(−5) mol/L
reported metric: Inhibition rate, adhesion ability of human lung cancer cell A549 (%)
Value expressed in %; do not type the unit.

Recorded Inhibition rate, adhesion ability of human lung cancer cell A549, per entry:
# compound, readout value
rows = [
    ("CNC(=O)c1cc(Oc2ccc(NC(=O)Nc3ccc(Br)c(C(F)(F)F)c3)cc2)c2cc(OC)ccc2n1", 79.66),
    ("COc1ncncc1Oc1ccc(NC(=O)Nc2ccc(Cl)c(C(F)(F)F)c2)cc1", 72.44),
    ("CNC(=O)c1cc(Oc2ccc(NC(=O)Nc3ccc(Br)c(C(F)(F)F)c3)cc2)c(C)[nH]1", 68.63),
    ("COc1ncncc1Oc1ccc(NC(=O)Nc2ccc(F)c(C(F)(F)F)c2)cc1", 77.56),
    ("CNC(=O)c1cc(Oc2ccc(NC(=O)Nc3ccc(F)c(C(F)(F)F)c3)cc2)c2cc(OC)ccc2n1", 75.15),
]

Query: I would be grateful if you could share the reported Inhibition rate, adhesion ability of human lung cancer cell A549 for `CNC(=O)c1nc(Oc2ccc(NC(=O)Nc3ccc(F)c(C(F)(F)F)c3)cc2)c2ccc(F)cc2n1` .
Response: 87.58

Query: Now this one: `COc1ccc2nccc(Oc3ccc(NC(=O)Nc4ccc(Cl)c(C(F)(F)F)c4)cc3)c2c1`
Response: 90.77

Query: Would you mind doing `Cc1cc(Oc2ccc(NC(=O)Nc3ccc(Br)c(C(F)(F)F)c3)cc2)c[nH]1` as well?
Response: 92.44

Query: How about this compound: `CNC(=O)c1ncc(Oc2ccc(NC(=O)Nc3ccc(Br)c(C(F)(F)F)c3)cc2)c(OC)n1`
Response: 85.32

Query: And then `O=C(Nc1ccc(Oc2ncnc3cc(F)ccc23)cc1)Nc1ccc(Cl)c(C(F)(F)F)c1` , what is it?
Response: 90.28

Query: Please give the result for `CCCNC(=O)c1cc(Oc2ccc(NC(=O)Nc3ccc(Cl)c(OC)c3)c(C(F)(F)F)c2)c2ccc(C(F)(F)F)cc2n1` too.
Response: 75.53

Query: Field entry: `CNC(=O)c1ncc(Oc2ccc(NC(=O)Nc3ccc(Cl)c(C(F)(F)F)c3)cc2)c(OC)n1`
Response: 68.34

Query: Now the compound O=C(Nc1ccc(Oc2ccnc3ccccc23)cc1)Nc1ccc(Cl)c(C(F)(F)F)c1 [Compound A′, reference compound]
Response: 71.55

Query: What do you have for `CCCNC(=O)c1cc(Oc2ccc(NC(=O)Nc3ccc(Cl)c(OC)c3)c(F)c2)c2ccc(C(F)(F)F)cc2n1` ?
Response: 71.74

Query: Moving on to the next compound: `CNC(=O)c1nc(Oc2ccc(NC(=O)Nc3ccc(Br)c(C(F)(F)F)c3)cc2)c2ccc(F)cc2n1`
Response: 93.59

----------
- System: Raf-1(truncated)
- assay method text: Raf-1 inhibitor screening by chemoluminescence method
- Assay type: biochemical
- experimental setup: Final concentration 1 x 1.0*10^−5 mol/ml
reported metric: Inhibition rate % on raf kinase (%)
Response body: numeric value in %, unit text excluded.

Worked set:
# test smiles, Inhibition rate % on raf kinase, %
rows = [
    ("COc1ncncc1Oc1ccc(NC(=O)Nc2ccc(Br)c(C(F)(F)F)c2)cc1", 91.3),
    ("CNC(=O)c1cc(Oc2ccc(NC(=O)Nc3ccc(F)c(C(F)(F)F)c3)cc2)c(C)[nH]1", 41.3),
    ("O=C(Nc1ccc(Oc2ncnc3cc(F)ccc23)cc1)Nc1ccc(F)c(C(F)(F)F)c1", 87.7),
]

Query: Given the entry `Nc1ccc2c(Oc3ccc(NC(=O)Nc4ccc(Br)c(C(F)(F)F)c4)cc3)cncc2c1` , report its measured Inhibition rate % on raf kinase.
Response: 8.8

----------
- System: Human colon cancer HT-29 transplantable tumor
- assay method text: Human colon cancer HT-29 transplantable tumor in nude mice
- experimental setup: HT-29 in nude mice, 60 mg/kg ig 9 times
Rule: Relative tumor reproduction rate T/C (%) below 40% gives Satisfied, anything at or above gives Not satisfied.

# compound, class assignment
measured = [
    ("Cc1cc(Oc2ccc(NC(=O)Nc3ccc(Br)c(C(F)(F)F)c3)cc2)c[nH]1 [Compound 30]", "Not satisfied"),
    ("O=C(Nc1ccc(Oc2ncnc3cc(F)ccc23)cc1)Nc1ccc(Br)c(C(F)(F)F)c1 [Compound 21]", "Satisfied"),
    ("CNC(=O)c1ncc(Oc2ccc(NC(=O)Nc3ccc(F)c(C(F)(F)F)c3)cc2)c2ccc(N)cc12 [Compound 11]", "Not satisfied"),
    ("Nc1ccc2c(Oc3ccc(NC(=O)Nc4ccc(Cl)c(C(F)(F)F)c4)cc3)cncc2c1 [Compound 25]", "Not satisfied"),
    ("CCNC(=O)c1cc(Oc2ccc(NC(=O)Nc3ccc(Cl)c(OC)c3)c(OC)c2)c2ccc([N+](=O)[O-])cc2n1 [Compound 36]", "Not satisfied"),
]

Query: Hello, is Relative tumor reproduction rate T/C (%) of the following compound strictly smaller than 40%? CCCNC(=O)c1cc(Oc2ccc(NC(=O)Nc3ccc(Cl)c(OC)c3)c(C(F)(F)F)c2)c2ccc(C(F)(F)F)cc2n1 [Compound 38]
Response: Not satisfied

Query: What about this compound? COc1ncncc1Oc1ccc(NC(=O)Nc2ccc(Cl)c(C(F)(F)F)c2)cc1 [Compound 22]
Response: Not satisfied

Query: Please answer likewise for CNC(=O)c1ncc(Oc2ccc(NC(=O)Nc3ccc(F)c(C(F)(F)F)c3)cc2)c(OC)n1 [Compound 8]
Response: Satisfied

Query: // query: COc1ccc2nccc(Oc3ccc(NC(=O)Nc4ccc(F)c(C(F)(F)F)c4)cc3)c2c1 [Compound 17]
Response: Not satisfied

----------
- Test system: Raf-1(truncated)
- assay method text: Raf-1 inhibitor screening by chemoluminescence method
- Type: biochemical
- experimental setup: Final concentration 1 x 1.0*10^−5 mol/ml
reported metric: Inhibition rate % on raf kinase (%)
Report the value in % with no unit label.

# compound, reading unit, readout value
data = [
    ("CCc1cc(NC(=O)Nc2ccc(Oc3ccnc4cc(F)c(OC)cc34)cc2)ccc1Cl [Compound 31]", "%", 89.4),
    ("CNC(=O)c1ncc(Oc2ccc(NC(=O)Nc3ccc(Br)c(C(F)(F)F)c3)cc2)c(OC)n1 [Compound 9]", "%", 99.2),
    ("COc1ccc2nccc(Oc3ccc(NC(=O)Nc4ccc(Cl)c(C(F)(F)F)c4)cc3)c2c1 [Compound 16]", "%", 62.1),
    ("CNC(=O)c1ncc(Oc2ccc(NC(=O)Nc3ccc(Br)c(C(F)(F)F)c3)cc2)c2ccc(N)cc12 [Compound 12]", "%", 12.1),
    ("Nc1ccc2c(Oc3ccc(NC(=O)Nc4ccc(F)c(C(F)(F)F)c4)cc3)cncc2c1 [Compound 26]", "%", 15.3),
]

--- query ---
Query: Record lookup: for Raf-1(truncated), what Inhibition rate % on raf kinase belongs to CNC(=O)c1ncc(Oc2ccc(NC(=O)Nc3ccc(Cl)c(C(F)(F)F)c3)cc2)c(OC)n1 [Compound 7] ?
Response: 99.1

----------
- System: Raf-1(truncated)
- assay method text: Raf-1 inhibitor screening by chemoluminescence method
- Assay type: biochemical
- experimental setup: Final concentration 1 x 1.0*10^−5 mol/ml
reported metric: Inhibition rate % on raf kinase (%)
Give the quantity in %, number only.

# test smiles, readout value
records = [
    ("COc1ncncc1Oc1ccc(NC(=O)Nc2ccc(Cl)c(C(F)(F)F)c2)cc1", 88.1),
    ("CCNC(=O)c1cc(Oc2ccc(NC(=O)Nc3ccc(Cl)c(OC)c3)c(C)c2)c2ccc([N+](=O)[O-])cc2n1", 45.3),
    ("CCc1cc(NC(=O)Nc2ccc(Oc3ccnc4cc(F)c(C)cc34)cc2)ccc1Cl", 92.3),
]

Query: Find Inhibition rate % on raf kinase (Raf-1(truncated)) for the entry `CNC(=O)c1cc(Oc2ccc(NC(=O)Nc3ccc(Br)c(C(F)(F)F)c3)cc2)c(C)[nH]1`
Response: 35.5

Query: Repeat for the following compound: `O=C(Nc1ccc(Oc2ncnc3cc(F)ccc23)cc1)Nc1ccc(Br)c(C(F)(F)F)c1`
Response: 98.9

Query: Field entry: `CNC(=O)c1cc(Oc2ccc(NC(=O)Nc3ccc(F)c(C(F)(F)F)c3)cc2)c2cc(OC)ccc2n1`
Response: 61.1

Query: Also check `CCc1ccc(NC(=O)Nc2ccc(Oc3ccnc4cc(F)c(OC)cc34)cc2)cc1C(F)(F)F`
Response: 90.5

Query: // query: `CCc1ccc(NC(=O)Nc2ccc(Oc3ccnc4cc(F)c(C)cc34)cc2)cc1C(F)(F)F`
Response: 96.2

Query: Now the same for `COc1ccc2nccc(Oc3ccc(NC(=O)Nc4ccc(F)c(C(F)(F)F)c4)cc3)c2c1`
Response: 58.2

Query: Subsequent entry: `COc1ncncc1Oc1ccc(NC(=O)Nc2ccc(F)c(C(F)(F)F)c2)cc1`
Response: 89.9

Query: Now this one: `Cc1cc(Oc2ccc(NC(=O)Nc3ccc(Cl)c(C(F)(F)F)c3)cc2)c[nH]1`
Response: 33.5

Query: Entry to check: `CCNC(=O)c1cc(Oc2ccc(NC(=O)Nc3ccc(Cl)c(OC)c3)c(OC)c2)c2ccc([N+](=O)[O-])cc2n1`
Response: 81.2
